B1: TPR 5TU (parent)
chain: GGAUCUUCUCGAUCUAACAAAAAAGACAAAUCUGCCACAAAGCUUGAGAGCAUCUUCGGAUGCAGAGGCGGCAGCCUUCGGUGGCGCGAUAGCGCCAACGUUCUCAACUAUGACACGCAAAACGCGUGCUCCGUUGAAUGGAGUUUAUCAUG

# Variants of: B1
# assay.explanation: polymerase ribozyme fitness, log enrichment relative to wild type (log ratio); higher = more active; in vitro selection for triplet polymerase activity
Fewer inactive variants are shown than the library holds.
Kindly return YES if reported polymerase ribozyme fitness (log ratio) is no lower than -2; return NO if it is lower.

Task: Is polymerase ribozyme fitness (log ratio) for A41C G50C G83U C95A C99U C105G A137C at or above -2?
Output: NO

Task: For G50C G83U C93A G100U G124C G128U C132G U145G then?
Output: NO

Task: Next up: A3U C36U
Output: NO

Task: Entry U31A A39G A40U A41C G48A C95U C131G U148A please
Output: NO

Task: Same question for U53C A64G U90C G117C please.
Output: NO

Task: Note, next up: A41U C85U A91U A107U
Output: NO

Task: Now consider U55A G68C A91G A107C and answer again.
Output: NO

Task: Now consider A24U G80U and answer again.
Output: YES

Task: Field entry: A89G C125A
Output: YES

Task: Another: "G62A"
Output: YES
